ASSAYED_TARGET: T1, METTL15 R327A/K330A/R331A (Homo sapiens, UniProt A6NJ78 70-407, R327A;K330A;R331A)
T1 sequence: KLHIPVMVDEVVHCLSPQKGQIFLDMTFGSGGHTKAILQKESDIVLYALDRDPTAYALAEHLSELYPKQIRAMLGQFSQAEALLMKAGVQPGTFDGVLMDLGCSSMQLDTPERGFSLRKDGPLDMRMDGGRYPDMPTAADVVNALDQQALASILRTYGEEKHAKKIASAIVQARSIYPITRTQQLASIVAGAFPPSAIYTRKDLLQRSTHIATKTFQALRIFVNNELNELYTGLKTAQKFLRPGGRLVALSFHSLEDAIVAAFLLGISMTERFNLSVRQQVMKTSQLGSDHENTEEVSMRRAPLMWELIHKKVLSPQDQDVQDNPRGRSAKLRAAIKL
ASSAY_REMARKS: fluorescence polarization; FP: dilution buffer B (50 mM Na2HPO4, 150 mM NaCl, pH 7.0), 20 C, 15 min incubation, 80 nM FAM-RNA stock mixed 1:1 (40 nM final); 1:1 binding model
EXPERIMENTAL_SETUP: protein: recombinant; tags: SUMO tag removed (ULP1); label: 5'-FAM; hairpin
EXPERIMENTAL_ENDPOINT: Kd (nM)

{"columns": ["BINDER", "EXPERIMENTAL_ENDPOINT", "UNIT_TAG", "REPORTED"],
 "data": [
  ["CGACCGCCCGUAACGGUCG (structured_RNA) [5'-FAM-h44_dsRNA1]", "Kd", "nM", 1030]
]}

The measured values listed here are drawn from paper PMC10828496.
